tested on: HepG2-A16-CD81EGFP cells; conditions: HepG2, 3 µM dose, averaged response (percent)
Catalogue of Average HepG2 3 µM response( %) values
Give your result in % as a bare value.

{"columns": ["compound", "reported"],
 "data": [
  ["COc1ccc(C2=C(Nc3ccc(C)cc3)c3ccccc3C2=O)cc1 [MLS000563980]", 89]
]}

stdin: Please report the recorded Average HepG2 3 µM response( %) for CN(C(Cc1ccc(O[S+](=O)([O-])c2cccc3cnccc23)cc1)C(=O)N1CCN(c2ccccc2)CC1)[S+](=O)([O-])c1cccc2cnccc12 (centres unmarked) [NCGC00163381] .
stdout: 79

stdin: Fill in the blank: the reported Average HepG2 3 µM response( %) of O=C1C(Nc2ccccc2)=C/C(=N\S(=O)(=O)c2cccs2)c2ccccc21 [MLS000374486] is ____.
stdout: 86

stdin: Tell me the measured Average HepG2 3 µM response( %) of OC(CNCCNc1ncccc1C(F)(F)F)Cn1ccc2ccccc21 (centres unmarked) [MLS000833573] , please.
stdout: 95

stdin: Request the reported Average HepG2 3 µM response( %) associated with Cl.Oc1ccc(C2NCc3ccccc3-n3cccc32)cc1Cl (centres unmarked) [MLS000047999]
stdout: 94

stdin: Item Cc1ccc2oc(=O)c3cnn(CC(=O)Nc4cccc(C(F)(F)F)c4)c3c2c1 [NCGC00110933] has what recorded Average HepG2 3 µM response( %)?
stdout: 98

stdin: Dear colleague, I am looking for the recorded Average HepG2 3 µM response( %) of the following compound: N=c1n(N)c2ccccc2n1CC(=O)c1ccc(Br)cc1 [MLS001183984]
stdout: 102

stdin: What measured Average HepG2 3 µM response( %) goes with CCN(CC)CCn1c(=N)n(CC(O)COc2ccccc2C)c2ccccc21 (centres unmarked) [NCGC00101835] ?
stdout: 100
